tested on: equilibration of mice; assay: Rotating rod test: equilibration; format: in vivo; conditions: Mus musculus, oral, 50% of mice fall
parameter measured: ED50 (mg/kg)

>>> value_reported("CCOC(=O)C1N=C(c2ccccc2Cl)c2cc(Cl)ccc2NC1=O (stereo not shown) [CM 7101]")
6
>>> value_reported("CCOC(=O)C1N=C(c2ccccc2F)c2cc(Cl)ccc2NC1=O (stereo not shown) [CM 6912]")
5
>>> value_reported("COC(=O)C1N=C(c2ccccc2Cl)c2cc(Cl)ccc2NC1=O (stereo not shown) [compound 7442]")
8

###

test system: mice; assay: Anxiolytic activity: 4 plate test; format: in vivo; conditions: oral, 45 minutes after administration, lowest dose with significant effect
parameter measured: Anxiolysis 4 plates threshold dose (TD)

>>> value_reported("CCOC(=O)C1N=C(c2ccccc2F)c2cc(Cl)ccc2NC1=O (stereo not shown)")
1
>>> value_reported("COC(=O)C1N=C(c2ccccc2Cl)c2cc(Cl)ccc2NC1=O (stereo not shown)")
0.1
>>> value_reported("CCOC(=O)C1N=C(c2ccccc2Cl)c2cc(Cl)ccc2NC1=O (stereo not shown)")
0.5
>>> value_reported("CCOC(=O)C1N=C(c2ccccc2)c2cc(Cl)ccc2NC1=O (stereo not shown) [CM 4279, reference compound]")
10

###

tested on: central receptor site of the benzodiazepines; experiment: Affinity for the central benzodiazepine receptor site, displacement of 3H-flunitrazepam in vitro; type: binding; details: mice and rats
parameter measured: displacement of 3H-flunitrazepam in vitro

>>> value_reported("O=C1CN=C(c2ccccc2F)c2cc(Cl)ccc2N1 [de-carbethoxy analog]")
"very potent"
>>> value_reported("CCOC(=O)C1N=C(c2ccccc2F)c2cc(Cl)ccc2NC1=O (stereo not shown) [CM 6912]")
"weak displacers"
>>> value_reported("O=C1Nc2ccc(Cl)cc2C(c2ccccc2F)=NC1O (stereo not shown) [3-hydroxy analog]")
"very potent"
>>> value_reported("O=C(O)C1N=C(c2ccccc2F)c2cc(Cl)ccc2NC1=O (stereo not shown) [free acid]")
"weak displacers"
